- test-description: Cytotoxicity against human 2BS cells assessed as inhibition of cell viability measured after 72 hrs by MTT assay
- Type: toxicity, cell-based
outcome-measure: IC50 at 72 h (µM)
Return type: number; implicit unit µM.

# IC50 at 72 h of O=C(NO)c1sccc1Nc1nc(Nc2ccc(N3CCOCC3)cc2)ncc1Cl = 24.6

# IC50 at 72 h of C=CC(=O)Nc1cc(Nc2nccc(-c3cn(C)c4ccccc34)n2)c(OC)cc1N(C)CCN(C)C = 17.6

Below: the item to evaluate.
# IC50 at 72 h of O=C(NO)c1ccsc1Nc1nc(Nc2ccc(N3CCOCC3)cc2)ncc1Cl = 15.2
